# Tested on: guinea pig Leukotriene B4 Receptor (LTB4), gene 100379538
# EXPERIMENT: NVS_GPCR_gLTB4: NovaScreen (NVS) G Protein-Coupled Receptor Assay for guinea pig Leukotriene B4 Receptor (LTB4) (AID 2283247)
Inconclusive results are not listed. Activity calls are given as the source filed them. Rule for the calls: active = hit-call score of the fitted dose curve at least 0.9, where 1 is the maximum; inconclusive = response in the unintended direction; inactive = score below 0.9.
OBSERVATION_TYPE: AC50

[
  {
    "COMPOUND": "O=Cc1ccccc1C=O",
    "RESULT": "inactive"
  },
  {
    "COMPOUND": "CCc1cc(C2=C(C(=O)O)N(c3ccccc3C(F)(F)F)S(=O)(=O)c3ccccc32)cc2c1OCO2",
    "RESULT": "3.48 µM (active)"
  },
  {
    "COMPOUND": "CC(C)(O)c1ccc(CNC(=O)c2cccnc2Oc2ccc(F)cc2)cc1",
    "RESULT": "4.68 µM (active)"
  },
  {
    "COMPOUND": "C#CC(O)C(CC)CCCC (stereo unspecified)",
    "RESULT": "2.8 µM (active)"
  },
  {
    "COMPOUND": "CCCCc1nc2cccnc2n1Cc1ccc(-c2ccccc2-c2nnn[nH]2)cc1",
    "RESULT": "10.9 µM (active)"
  }
]

Now let's try a different one.
Inquiry: Fill blank: measured AC50 of the compound NC=O is ____.
Reply text: inactive

---

# EXPERIMENT: BSK_3C_SRB: Viability Assessment in the BioMAP Diversity Plus: 3C Assay (AID 2283023);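 note: cells read 24 h after compound dosing; fitted both ways against DMSO so a hit may be signal rise or drop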
# CONDITION_NOTES: primary human endothelial cells (HUVEC)
Active and inactive are the calls of the source. Rule for the calls: active = hit-call score of the fitted dose curve at least 0.9, where 1 is the maximum; inactive = score below 0.9.
Respond using exactly one of the listed classes: active, inactive

[
  {
    "ITEM_SMILES": "O=C1c2c(O)cccc2Cc2cccc(O)c21",
    "ASSIGNED_CATEGORY": "active"
  },
  {
    "ITEM_SMILES": "Cc1cn([C@H]2C=C[C@@H](CO)O2)c(=O)[nH]c1=O",
    "ASSIGNED_CATEGORY": "inactive"
  },
  {
    "ITEM_SMILES": "Cc1occc(=O)c1O",
    "ASSIGNED_CATEGORY": "inactive"
  }
]

Could you now consider this next compound?
Inquiry: Per the records of this test, what outcome belongs to O=C1CCCCC1 ?
Reply text: inactive

---

# Read-out: CYP4A11 (gene 1579)
# EXPERIMENT: LTEA_HepaRG_CYP4A11: Life Technologies and Expression Analysis (LTEA) Assay for CYP4A11 using HepaRG (AID 2283486)
# CONDITION_NOTES: mRNA level, 48 h; actives raise or lower the signal
The source made the active and inactive calls. How the source made its calls: active means hit-call score of the fitted dose curve at least 0.9, where 1 is the maximum; inactive means score below 0.9.
Your response should consist of one outcome taken from 1 (active), 0 (inactive)

[
  {
    "MOLECULE": "C/C=C/c1ccc(OC)cc1",
    "ASSIGNED_CATEGORY": 0
  },
  {
    "MOLECULE": "CC(C)c1cccc(C(C)C)c1",
    "ASSIGNED_CATEGORY": 0
  },
  {
    "MOLECULE": "CC(C)(C)c1ccccc1",
    "ASSIGNED_CATEGORY": 0
  }
]

Inquiry: Please let me know the test result on file for CCc1nc(N)nc(N)c1-c1ccc(Cl)cc1 .
Reply text: 1

Inquiry: Also S=c1[nH]c2ccccc2s1 ?
Reply text: 0

Inquiry: Try this molecule too: CSc1ccc(Oc2ccc(S(N)(=O)=O)cc2CN(C)C)cc1C
Reply text: 1

Inquiry: Try the molecule CCCCC(CC)COC(=O)CCCCCCCC(=O)OCC(CC)CCCC (configuration not stated)
Reply text: 0

Data credit: PubChem BioAssay (EPA / NIEHS)
